test system: MDA-MB-231 breast cancer cell lines; experiment: Evaluation of inhibition on cell growth (MTS); type: cell-based; details: Homo sapiens, MDA-MB-231, 120 hours
Where a name gives a salt, the structure may show the parent alone.
For each record, write down the corresponding GI50.

Sample answers from the record:
compound: CN[C@@H](C)C(=O)N[C@H](C(=O)N1CCC[C@H]1C(=O)Nc1cc2c(Nc3ccccc3)ncnc2cc1OC)C(C)(C)C.Cl [Example 11, hydrochloride]
GI50: ≤ 100 nM
//
compound: C#CCO[C@H](C)[C@H](NC(=O)[C@H](C)NC)C(=O)N1CCC[C@H]1C(=O)Nc1cc2c(Nc3ccc(F)c(Cl)c3F)ncnc2cc1OC [Example 45, hydrochloride]
GI50: ≤ 100 nM
//
compound: CN[C@@H](C)C(=O)N[C@H](C(=O)N1CCC[C@H]1C(=O)Nc1cc2c(Nc3cnc4ccccc4c3)ncnc2cc1OC)C(C)(C)C [Example 62, dihydrochloride]
GI50: 100 to 1000 nM
//
compound: CN[C@@H](C)C(=O)N[C@H](C(=O)N1CCC[C@H]1C(=O)Nc1cc2c(Nc3ccccc3F)ncnc2cc1OC)C(C)(C)C.Cl [Example 10, hydrochloride]
GI50: ≤ 100 nM

Give the reported GI50 for CN[C@@H](C)C(=O)N[C@H](C(=O)N1CCC[C@H]1C(=O)Nc1cc2c(NCc3ccc(F)cc3F)ncnc2cc1OC)C(C)(C)C [Example 35, hydrochloride] (system: MDA-MB-231 breast cancer cell lines).
≤ 100 nM

---

assay: Toxicity to normal cells (SRB); format: cell-based, human; settings: human, Hs27 fibroblasts (normal cell line)
Structures can show the parent of a compound that is named as a salt.
property-measured: GI50 at 72 h

# count of solved cases: 5
molecule: CN[C@@H](C)C(=O)N[C@H](C(=O)N1CCC[C@H]1C(=O)Nc1cc2c(Nc3cc(NC(C)=O)ccc3Cl)ncnc2cc1OC)C(C)(C)C [Example 75]
GI50 at 72 h: > 10 µM
//
molecule: CN[C@@H](C)C(=O)N[C@H](C(=O)N1CCC[C@H]1C(=O)Nc1cc2c(Nc3ccc4[nH]ncc4c3)ncnc2cc1OC)C(C)(C)C [Example 54]
GI50 at 72 h: > 10 µM
//
molecule: CN[C@@H](C)C(=O)N[C@H](C(=O)N1CCC[C@H]1C(=O)Nc1cc2c(N3CCCc4ccccc43)ncnc2cc1OC)C(C)(C)C [Example 50, hydrochloride]
GI50 at 72 h: > 10 µM
//
molecule: CN[C@@H](C)C(=O)N[C@H](C(=O)N1CCC[C@H]1C(=O)Nc1cc2c(Nc3ccc(F)cc3Br)ncnc2cc1OC)C(C)(C)C [Example 82, hydrochloride]
GI50 at 72 h: > 10 µM
//
molecule: CN[C@@H](C)C(=O)N[C@H](C(=O)N1CCC[C@H]1C(=O)Nc1cc2c(Nc3ccc(OCc4cccc(F)c4)c(Cl)c3)ncnc2cc1OC)C(C)(C)C [Example 37, hydrochloride]
GI50 at 72 h: > 10 µM

Field: next molecule
Value lookup for GI50 at 72 h; key = CN[C@@H](C)C(=O)N[C@H](C(=O)N1CCC[C@H]1C(=O)Nc1cc2c(Nc3ccc4ccccc4c3)ncnc2cc1OC)C(C)(C)C [Example 32]
> 10 µM

---

test system: MDA-MB-231 breast cancer cell lines; assay: Evaluation of inhibition on cell growth (MTS); type: cell-based; conditions: Homo sapiens, MDA-MB-231, 120 hours
Structures can show the parent of a compound that is named as a salt.
property-measured: GI50

compound: CN[C@@H](C)C(=O)N[C@H](C(=O)N1CCCC[C@H]1C(=O)Nc1cc2c(Nc3ccc(F)c(Cl)c3F)ncnc2cc1OC)C(C)(C)C
GI50: 100 to 1000 nM
--
compound: CN[C@@H](C)C(=O)N[C@H](C(=O)N1CCC[C@H]1C(=O)Nc1cc2c(Nc3ccc4c(c3)CC(=O)N4)ncnc2cc1OC)C(C)(C)C [Example 94, hydrochloride]
GI50: 100 to 1000 nM
--
compound: CN[C@@H](C)C(=O)N[C@H](C(=O)N1CCC[C@H]1C(=O)Nc1cc2c(Nc3ccc(S(=O)(=O)N4CCN(C)CC4)cc3)ncnc2cc1OC)C(C)(C)C [Example 108, hydrochloride]
GI50: ≤ 100 nM
--
compound: CN[C@@H](C)C(=O)N[C@H](C(=O)N1CCC[C@H]1C(=O)Nc1cc2c(Nc3ccc(N4CCOCC4)c(Cl)c3)ncnc2cc1OC)C(C)(C)C
GI50: ≤ 100 nM
--
compound: CN[C@@H](C)C(=O)N[C@H](C(=O)N1CCC[C@H]1C(=O)Nc1cc2c(Nc3cccnc3Cl)ncnc2cc1OC)C(C)(C)C [Example 78, hydrochloride]
GI50: ≤ 100 nM
--
compound: CN[C@@H](C)C(=O)N[C@H](C(=O)N1CCC[C@H]1C(=O)Nc1cc2c(Nc3ccc(Br)cc3Cl)ncnc2cc1OC)C(C)(C)C [Example 80, hydrochloride]
GI50: ≤ 100 nM

Quick request: GI50 for each listed item, please.
1. CN[C@@H](C)C(=O)N[C@H](C(=O)N1CCC[C@H]1C(=O)Nc1cc2c(Nc3cc(Cl)c(OCc4ccccn4)c(Cl)c3)ncnc2cc1OC)C(C)(C)C [Example 101, hydrochloride]
2. CN[C@@H](C)C(=O)N[C@H](C(=O)N1CCC[C@H]1C(=O)Nc1cc2c(Nc3ccc(F)cc3Br)ncnc2cc1OC)C(C)(C)C [Example 82, hydrochloride]
3. CN[C@@H](C)C(=O)N[C@H](C(=O)N1CCC[C@H]1C(=O)Nc1cc2c(Nc3ccc(N4CCOCC4)cc3)ncnc2cc1OC)C(C)(C)C [Example 90, hydrochloride]

1: ≤ 100 nM; 2: ≤ 100 nM; 3: ≤ 100 nM

---

Would you mind telling me the reported GI50 of each entry?
tested on: MDA-MB-231 breast cancer cell lines; assay: Evaluation of inhibition on cell growth (MTS); assay type: cell-based; details: Homo sapiens, MDA-MB-231, 120 hours
Where a name gives a salt, the structure may show the parent alone.

// known answers, use as guide
molecule: CN[C@@H](C)C(=O)N[C@H](C(=O)N1CCC[C@H]1C(=O)Nc1cc2c(Nc3ccc(N4CCN(C5CCN(C)CC5)CC4)cc3)ncnc2cc1OC)C(C)(C)C [Example 110, hydrochloride]
result: ≤ 100 nM
//
molecule: CN[C@@H](C)C(=O)N[C@H](C(=O)N1CCC[C@H]1C(=O)Nc1cc2c(Nc3ccc(N4CCCC4)cc3)ncnc2cc1OC)C(C)(C)C [Example 65, dihydrochloride]
result: ≤ 100 nM
//
molecule: CN[C@@H](C)C(=O)N[C@H](C(=O)N1CCC[C@H]1C(=O)Nc1cc2c(Nc3ccc(N(C)C)cc3)ncnc2cc1OC)C(C)(C)C [Example 64, dihydrochloride]
result: ≤ 100 nM
//
molecule: CN[C@@H](C)C(=O)N[C@H](C(=O)N1CCC[C@H]1C(=O)Nc1cc2c(Nc3ccc(N4CCN(CC5CC5)CC4)c(Cl)c3)ncnc2cc1OC)C(C)(C)C
result: ≤ 100 nM
//
molecule: CN[C@@H](C)C(=O)N[C@H](C(=O)N1CCC[C@H]1C(=O)Nc1cc2c(Nc3c(Cl)ccc4c3OCO4)ncnc2cc1OC)C(C)(C)C [Example 51, hydrochloride]
result: ≤ 100 nM

Would you mind giving GI50 for every molecule in the list below?
1. CN[C@@H](C)C(=O)N[C@H](C(=O)N1CCC[C@H]1C(=O)Nc1cc2c(Nc3ccc4c(c3)OCO4)ncnc2cc1OC)C(C)(C)C
2. CN[C@@H](C)C(=O)N[C@H](C(=O)N1CCC[C@H]1C(=O)Nc1cc2c(N(C)c3ccccc3)ncnc2cc1OC)C(C)(C)C [Example 31, hydrochloride]
3. CN[C@@H](C)C(=O)N[C@H](C(=O)N1CCC[C@H]1C(=O)Nc1cc2c(Nc3ccncc3)ncnc2cc1OC)C(C)(C)C [Example 73, hydrochloride]
4. CN[C@@H](C)C(=O)N[C@H](C(=O)N1CCC[C@H]1C(=O)Nc1cc2c(Nc3ccccc3Br)ncnc2cc1OC)C(C)(C)C [Example 22, hydrochloride]
5. COc1cc2ncnc(Nc3ccc(F)c(Cl)c3F)c2cc1NC(=O)[C@@H]1CCCN1C(=O)[C@@H](NC(=O)[C@H](C)N)C(C)(C)C [Example 12, hydrochloride]

1: ≥ 1000 nM; 2: ≤ 100 nM; 3: ≤ 100 nM; 4: ≤ 100 nM; 5: ≥ 1000 nM

Values compiled from patent US8835458B2.
